B1: CPEB3 Ribozyme (parent)
chain: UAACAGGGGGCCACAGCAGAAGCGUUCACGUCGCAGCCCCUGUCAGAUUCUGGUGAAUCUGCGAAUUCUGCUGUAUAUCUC

variants of: B1; test: self-cleavage, relative activity (ratio to wild type); higher = more cleavage; in vitro, sequencing
Label y when self-cleavage is at or above 0.3; otherwise label n.

mutation label: U72C C79U
class name: y
//
mutation label: C50G U69C
class name: n
//
mutation label: G24C
class name: y
//
mutation label: G6U U48A
class name: n
//
mutation label: A28G U41A
class name: n
//
mutation label: A13G C44U
class name: y
//
mutation label: C23U U25A
class name: n
//
mutation label: A57G C62U
class name: y
//
mutation label: C17U U26G
class name: n
//
mutation label: C23A U80C
class name: n
//
mutation label: A64U G70C
class name: n
//
mutation label: G16A A64G
class name: y
//
mutation label: C37U A47G
class name: y
//
mutation label: G8C U51A
class name: n
//
mutation label: G8U G52A
class name: n
//
mutation label: G36A U54C
class name: n
//
mutation label: G8C G73U
class name: n
//
mutation label: C32U U60A
class name: n
//
mutation label: G6C U78C
class name: y
//
mutation label: U69A U72C
class name: y
//
mutation label: A3C U58G
class name: n
//
mutation label: A47G C59A
class name: n
//
mutation label: A28G A57U
class name: n
//
mutation label: C11G G36U
class name: n
//
mutation label: A21U U72G
class name: n
//
mutation label: U66C U72C
class name: y
//
mutation label: A47G U80A
class name: y
//
mutation label: A35U G61A
class name: n
//
mutation label: C29U U41A
class name: y
//
mutation label: A21U A45U
class name: n
//
mutation label: G33A U69G
class name: n
//
mutation label: A15G U74A
class name: y
//
mutation label: U49A U54G
class name: n
//
mutation label: U1C U25C
class name: y
//
mutation label: A2C A77G
class name: y
//
mutation label: A15C A57U
class name: y
//
mutation label: U1A C11U
class name: y
//
mutation label: U43C C68A
class name: n
//
mutation label: G33U U66C
class name: n
//
mutation label: A18U C23A
class name: n
//
mutation label: G22A G63A
class name: n
//
mutation label: U48A A64G
class name: n
//
mutation label: G36A U51G
class name: n
//
mutation label: C32A U43C
class name: y
//
mutation label: A13U C29U
class name: y
//
mutation label: U26C U74A
class name: y
//
mutation label: A28C U58C
class name: n
//
mutation label: C11U U67C
class name: n
//
mutation label: G30U U41A
class name: n
//
mutation label: A3U U72C
class name: y
//
mutation label: U51C A77U
class name: y
//
mutation label: A13C U54C
class name: y
//
mutation label: U31A C71A
class name: n
//
mutation label: A45G G61C
class name: n
//
mutation label: U51C U76A
class name: y
//
mutation label: U26G U49A
class name: n
//
mutation label: A3C C11U
class name: y
//
mutation label: U41G U51A
class name: y
//
mutation label: C34U G52U
class name: y
//
mutation label: C37U A45C
class name: n
//
mutation label: A5C A45U
class name: y
//
mutation label: U49C G73A
class name: y
//
mutation label: A35G C37G
class name: y
//
mutation label: U31A C50U
class name: y
//
mutation label: A15G G33A
class name: n
//
mutation label: C12U C39U
class name: y
//
mutation label: C12A U48G
class name: n
//
mutation label: G9A U43C
class name: n
//
mutation label: A3G C27U
class name: y
//
mutation label: A47U U66A
class name: n
//
mutation label: A2G G19U
class name: y
//
mutation label: A64G C81A
class name: y
//
mutation label: A20U A64U
class name: n
//
mutation label: U51A U76C
class name: y
//
mutation label: G19U U58A
class name: n
//
mutation label: A47U U66C
class name: y
//
mutation label: C17U U69A
class name: y
//
mutation label: A20U G24A
class name: n
//
mutation label: U49C U72A
class name: n
//
mutation label: C71U
class name: y
//
mutation label: A5U A77U
class name: y
//
mutation label: A18G A35C
class name: y
//
mutation label: G22C U69C
class name: n
//
mutation label: A64C
class name: n
//
mutation label: G36U A75G
class name: n
//
mutation label: A15U C68U
class name: n
//
mutation label: G52A U80A
class name: y
//
mutation label: C12U A35U
class name: y
//
mutation label: G36C A45G
class name: n
//
mutation label: A15G G33C
class name: n
